Recorded values, source ChEMBL document CHEMBL4311982.

Organism: Rattus norvegicus
Task for the reader: assign each of the following compounds its reported TT.
# number only, unit min dropped from output

Please look up its TT: CCOC(=O)[C@]1(C)CCC[C@@]2(C)[C@@H]3CC[C@@]4(C)C[C@]3(CC[C@@H]21)C/C4=N\OCC1(C)COC1 22

Returns the measured TT for the input compound. Input: CCOC(=O)[C@]1(C)CCC[C@@]2(C)[C@@H]3CC[C@@]4(C)C[C@]3(CC[C@@H]21)C/C4=N\OCc1ccsc1 25.5

Look up TT for this compound: C[C@@]12CC[C@@H]3[C@@](CC[C@H]4[C@@]3(C)CCC[C@@]4(C)C(=O)O)(C[C@H]1O)C2 9.2

// returns reported TT for input COC(=O)[C@H](c1ccccc1Cl)N1CCc2sccc2C1 21
